Sourced from ChEMBL document CHEMBL2218924

target: Homeodomain-interacting protein kinase 2 (Homo sapiens) (UniProt Q9H2X6); details: at 10 µM
Sequence (Q9H2X6 whole entry, looked up): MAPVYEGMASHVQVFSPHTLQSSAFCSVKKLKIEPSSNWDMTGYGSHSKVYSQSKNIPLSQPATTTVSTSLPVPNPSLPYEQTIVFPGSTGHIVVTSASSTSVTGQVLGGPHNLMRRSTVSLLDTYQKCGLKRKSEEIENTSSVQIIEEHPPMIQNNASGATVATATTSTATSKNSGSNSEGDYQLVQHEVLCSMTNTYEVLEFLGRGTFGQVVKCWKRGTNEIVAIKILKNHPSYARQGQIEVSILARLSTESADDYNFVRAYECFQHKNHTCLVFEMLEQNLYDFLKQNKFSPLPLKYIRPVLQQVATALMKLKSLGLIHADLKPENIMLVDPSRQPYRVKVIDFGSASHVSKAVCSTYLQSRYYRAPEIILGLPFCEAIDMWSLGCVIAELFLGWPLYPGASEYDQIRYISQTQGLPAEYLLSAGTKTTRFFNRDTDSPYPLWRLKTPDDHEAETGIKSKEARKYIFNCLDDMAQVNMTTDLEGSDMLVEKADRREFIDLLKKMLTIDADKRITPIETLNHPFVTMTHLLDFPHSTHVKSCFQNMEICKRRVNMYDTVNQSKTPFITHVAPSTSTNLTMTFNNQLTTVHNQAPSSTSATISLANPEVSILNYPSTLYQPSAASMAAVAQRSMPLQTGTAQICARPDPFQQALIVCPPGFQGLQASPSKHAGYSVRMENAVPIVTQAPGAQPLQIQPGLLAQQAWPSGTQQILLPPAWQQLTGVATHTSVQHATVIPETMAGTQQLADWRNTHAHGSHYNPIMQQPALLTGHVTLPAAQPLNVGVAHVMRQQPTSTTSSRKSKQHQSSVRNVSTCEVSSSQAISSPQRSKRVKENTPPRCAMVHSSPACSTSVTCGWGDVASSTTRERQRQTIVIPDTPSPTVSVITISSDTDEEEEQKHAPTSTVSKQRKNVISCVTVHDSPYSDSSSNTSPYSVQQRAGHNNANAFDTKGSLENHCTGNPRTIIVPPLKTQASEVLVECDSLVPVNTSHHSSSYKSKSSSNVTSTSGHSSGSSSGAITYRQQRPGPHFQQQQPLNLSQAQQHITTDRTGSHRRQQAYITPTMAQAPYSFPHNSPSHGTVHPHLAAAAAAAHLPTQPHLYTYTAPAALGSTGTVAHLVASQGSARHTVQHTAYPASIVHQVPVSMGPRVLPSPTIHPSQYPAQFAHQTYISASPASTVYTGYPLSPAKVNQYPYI
PROPERTY LABEL: residual activity (%)

COc1cc2ncc(-c3ccccc3)nc2cc1OC : 97
CCN(CC)CCCCN1c2ccccc2Oc2ccc(Cl)cc21 : 96
Oc1n[nH]c2nnc(-c3c(-c4ccccc4)nn4ccccc34)cc12 : 92
Cc1ccc(S(=O)(=O)/C=C/C#N)cc1 : 96
COc1ccc(OC)c2c(=S)c3ccccc3[nH]c12 : 53
Nc1cccc(-c2cc3c(Oc4cccc(O)c4)ncnc3[nH]2)c1 : 54
O=C1NC(=O)c2cc(Nc3ccc(F)cc3)c(Nc3ccc(F)cc3)cc21 : 84
COc1cc2ncnc(Nc3ccc(Oc4ccccc4)cc3)c2cc1OC : 99
O=c1cc(-c2cccc3c2Sc2ccccc2S3)oc(N2CCOCC2)c1 : 77
Cc1nc2cc3nc(-c4cccs4)cnc3cc2n1C : 73
CC(=O)c1ccc(N2CCOCC2)cc1O : 94
CN(C)c1ccc(/C=C2\C(=O)Nc3ccccc32)cc1 : 83
O=C(Nc1cccc(Nc2cc(Nc3cccc(C(F)(F)F)c3)ncn2)c1)C1CC1 : 98
O=C1NC(=O)/C(=C\c2ccc3nccnc3c2)S1 : 7
c1ccc(-c2n[nH]c3c2oc2ccccc23)cc1 : 58
Cc1cc(Nc2nc(-c3ccccc3)nc3ccccc23)n[nH]1 : 13
CCC(=O)Nc1ccc2ncnc(Nc3cccc(Br)c3)c2c1 : 103
CO[C@H]1[C@@H](OC)C[C@H](C)[C@@H](OC)C2=CC(=O)C=C(NC(=O)/C(C)=C/C=C/[C@H](OC)[C@@H](OC(N)=O)/C(C)=C/[C@@H]1C)C2=O : 92
Ic1cccc(CSc2nnc(-c3ccncc3)o2)c1 : 54
COc1cccc(-c2cc(=O)c3ccccc3o2)c1N : 95
O=C1Nc2cc(Br)ccc2/C1=C1/Nc2ccccc2/C1=N\O : 4

---

biological target: Serine/threonine-protein kinase BRSK2 (Homo sapiens); settings: at 1 µM
Label 0 if residual activity falls below 90%; label 1 in every other case.

Nc1n[nH]c2nnc(-c3c(-c4ccccc4)nn4ccccc34)cc12 : 1
Cc1ccc(NC2=CC(=O)c3sc(C)nc3C2=O)cc1 : 1
O=C1Nc2ccccc2/C1=C1/Nc2ccccc2/C1=N\OCCC(O)CO (stereo unspecified) : 0
O=C1NC(=O)/C(=C/c2ccc3c(c2)OC(F)(F)O3)S1 : 0
CC#CC(=O)Nc1cc2c(Nc3ccc(F)c(Cl)c3)ncnc2cn1 : 1
O=C(Nc1cccc(Nc2cc(Nc3cccc(C(F)(F)F)c3)ncn2)c1)C1CC1 : 0
O=Nc1c(-c2c(O)[nH]c3ccccc23)[nH]c2ccccc12 : 0
O=c1c2ccccc2[nH]c(=S)n1CCN1CCC(=C(c2ccc(F)cc2)c2ccc(F)cc2)CC1 : 1
Ic1cccc(CSc2nnc(-c3ccncc3)o2)c1 : 1

---

Quick list: residual activity per entry.
target: Protein kinase C beta type (Homo sapiens) (UniProt P05771); settings: at 1 µM
Sequence (P05771 2-671 limits assumed): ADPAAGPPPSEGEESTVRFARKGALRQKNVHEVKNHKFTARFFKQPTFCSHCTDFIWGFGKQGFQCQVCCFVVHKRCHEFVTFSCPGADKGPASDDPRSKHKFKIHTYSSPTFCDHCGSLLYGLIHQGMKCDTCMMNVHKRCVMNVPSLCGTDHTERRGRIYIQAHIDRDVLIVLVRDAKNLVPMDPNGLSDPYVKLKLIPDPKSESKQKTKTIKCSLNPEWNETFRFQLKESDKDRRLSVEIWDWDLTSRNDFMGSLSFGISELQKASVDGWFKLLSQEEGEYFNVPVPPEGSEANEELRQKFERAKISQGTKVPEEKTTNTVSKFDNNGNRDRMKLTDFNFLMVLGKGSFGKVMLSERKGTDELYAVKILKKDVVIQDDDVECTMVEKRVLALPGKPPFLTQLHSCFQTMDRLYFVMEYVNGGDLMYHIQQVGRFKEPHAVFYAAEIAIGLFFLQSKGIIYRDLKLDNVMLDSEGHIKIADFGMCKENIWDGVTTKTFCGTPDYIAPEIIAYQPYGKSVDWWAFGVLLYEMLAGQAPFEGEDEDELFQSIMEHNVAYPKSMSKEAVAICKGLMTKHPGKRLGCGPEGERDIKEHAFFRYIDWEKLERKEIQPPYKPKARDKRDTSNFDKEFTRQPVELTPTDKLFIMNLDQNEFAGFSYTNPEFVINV
PROPERTY LABEL: residual activity (%)

Oc1ccc(-c2nc(-c3ccc(F)cc3)c(-c3ccncc3)[nH]2)cc1 : 124
Cn1nc2c3c(cccc31)C(=O)c1ccccc1-2 : 107
O=C1NC(=O)c2cc(Nc3ccc(F)cc3)c(Nc3ccc(F)cc3)cc21 : 107
C[C@@H](N)[C@H]1CC[C@H](C(=O)Nc2ccncc2)CC1 : 101
Nc1n[nH]c2nnc(-c3c(-c4ccccc4)nn4ccccc34)cc12 : 99
CN(C)c1ccc(/C=C2\C(=O)Nc3ccccc32)cc1 : 114
Cc1ccc(S(=O)(=O)/C=C/C#N)cc1 : 98
N#CC(C#N)=C(N)/C(C#N)=C/c1ccc(O)cc1 : 120
O=C(Nc1cccc(Nc2cc(Nc3cccc(C(F)(F)F)c3)ncn2)c1)C1CC1 : 105
Oc1c2ccccc2c2c3c(cccc13)N=N2 : 102
Nc1ccc2ncnc(NCCc3ccc(Oc4ccccc4)cc3)c2c1 : 137

---

molecular target: MAP kinase-activated protein kinase 3 (Homo sapiens); conditions: at 10 µM
Quick list: residual activity per entry.
PROPERTY LABEL: residual activity (%)

O=c1c2ccccc2[nH]c(=S)n1CCN1CCC(=C(c2ccc(F)cc2)c2ccc(F)cc2)CC1 : 86
N#CCCc1ccc2c(c1)-c1[nH]c3ccc([N+](=O)[O-])cc3c1CC(=O)N2 : 49
CCN(CC)C(=O)c1ccc(Nc2nc(OCC3CCCCC3)c3nc[nH]c3n2)cc1 : 69
COc1ccc(OC)c2c(=S)c3ccccc3[nH]c12 : 89
Oc1ccc(Nc2nc(-c3ccc(Cl)cc3)cs2)cc1 : 116
O=C1c2ccccc2-[n+]2ccc3c([nH]c4ccccc43)c21 : 89
CC#CC(=O)Nc1cc2c(Nc3ccc(F)c(Cl)c3)ncnc2cn1 : 96
O=C1Nc2ccc(Br)cc2/C1=C\c1cc2c([nH]1)CCCC2 : 101
Cc1nc2cc3nc(-c4cccs4)cnc3cc2n1C : 100
Cc1nc(-c2ccccc2)c(-c2ccncc2)o1 : 101
O=[N+]([O-])c1ccc(-c2nc(-c3ccc(F)cc3)c(-c3ccncc3)[nH]2)cc1 : 104

---

Quick list: residual activity per entry.
Target: Serine/threonine-protein kinase TAO2 (Homo sapiens) (UniProt Q9UL54)
Sequence (whole entry): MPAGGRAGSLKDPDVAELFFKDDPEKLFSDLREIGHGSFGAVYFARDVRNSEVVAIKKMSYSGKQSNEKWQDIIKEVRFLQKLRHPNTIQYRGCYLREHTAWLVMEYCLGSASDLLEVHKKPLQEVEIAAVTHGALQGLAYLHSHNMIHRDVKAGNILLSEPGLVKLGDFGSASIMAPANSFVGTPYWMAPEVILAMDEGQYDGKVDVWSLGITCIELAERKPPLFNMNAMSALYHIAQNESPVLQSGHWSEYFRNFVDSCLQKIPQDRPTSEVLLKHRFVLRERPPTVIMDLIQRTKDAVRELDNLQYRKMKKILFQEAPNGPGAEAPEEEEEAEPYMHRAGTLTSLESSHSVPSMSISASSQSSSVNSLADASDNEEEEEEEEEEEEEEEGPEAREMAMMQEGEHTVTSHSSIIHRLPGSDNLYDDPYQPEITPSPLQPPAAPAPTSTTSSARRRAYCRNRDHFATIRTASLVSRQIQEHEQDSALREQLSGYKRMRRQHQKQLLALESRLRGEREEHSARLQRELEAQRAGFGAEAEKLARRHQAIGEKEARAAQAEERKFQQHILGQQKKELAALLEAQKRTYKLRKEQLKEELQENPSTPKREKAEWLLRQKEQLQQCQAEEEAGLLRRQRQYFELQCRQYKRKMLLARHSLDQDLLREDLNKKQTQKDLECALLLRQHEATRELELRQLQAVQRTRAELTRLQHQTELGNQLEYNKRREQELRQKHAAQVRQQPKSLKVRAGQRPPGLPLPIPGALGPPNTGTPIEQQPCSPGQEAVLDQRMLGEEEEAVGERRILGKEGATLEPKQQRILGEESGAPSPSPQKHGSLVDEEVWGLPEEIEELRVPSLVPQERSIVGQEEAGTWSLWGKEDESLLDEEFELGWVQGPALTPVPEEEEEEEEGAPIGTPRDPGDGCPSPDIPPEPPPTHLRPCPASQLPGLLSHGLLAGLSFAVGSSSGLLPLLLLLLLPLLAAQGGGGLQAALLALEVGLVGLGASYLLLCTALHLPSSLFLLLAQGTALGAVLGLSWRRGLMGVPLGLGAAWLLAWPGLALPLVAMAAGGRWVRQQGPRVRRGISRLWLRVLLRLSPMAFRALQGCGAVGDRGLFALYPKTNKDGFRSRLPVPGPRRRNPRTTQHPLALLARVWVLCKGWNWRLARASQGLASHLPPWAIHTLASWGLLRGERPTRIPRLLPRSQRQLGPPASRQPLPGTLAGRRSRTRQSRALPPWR
Settings: at 10 µM
PROPERTY LABEL: residual activity (%)

COc1cc2ncnc(Nc3ccc(Oc4ccccc4)cc3)c2cc1OC : 106
COc1cc2ncnc(Nc3ccc(O)c(Br)c3)c2cc1OC : 75
Cc1cc2ncc(-c3ccccc3)nc2cc1C : 91
O=Nc1c(-c2c(O)[nH]c3ccccc23)[nH]c2ccccc12 : 26
N#CC(C#N)=C(N)/C(C#N)=C/c1ccc(O)cc1 : 87
O=C1Nc2cc(Br)ccc2/C1=C1/Nc2ccccc2/C1=N\O : 91
COc1ccc(S(=O)(=O)N(CCO)c2ccccc2CN(C)C/C=C/c2ccc(Cl)cc2)cc1 : 88
O=C1NC(=O)/C(=C\c2ccc3nccnc3c2)S1 : 44
CC[n+]1c(/C=C/N(C)c2ccccc2)n(-c2ccccc2)c2ccc(-c3nc4ccccc4s3)cc21 : 60
CC(C)n1cnc2c(NCc3ccccc3)nc(NCCCO)nc21 : 101
O=C1c2ccccc2-[n+]2ccc3c([nH]c4ccccc43)c21 : 90
c1ccc2c(-c3ccncc3)c[nH]c2c1 : 85
Cc1ccc(NC2=CC(=O)c3sc(C)nc3C2=O)cc1 : 88
CC(=O)O/N=C1\C(=C2\C(=O)Nc3cc(Br)ccc32)Nc2ccccc21 : 83
Cc1ccc(S(=O)(=O)/C=C/C#N)cc1 : 109
Cc1cccc(-c2[nH]c(C(C)(C)C)nc2-c2ccc3c(c2)OCO3)n1 : 90
C[C@@H](N)[C@H]1CC[C@H](C(=O)Nc2ccncc2)CC1 : 109
CC#CC(=O)Nc1cc2c(Nc3ccc(F)c(Cl)c3)ncnc2cn1 : 80
O=C1NC(=O)c2c1c1c3ccccc3[nH]c1c1[nH]c3cc(Br)ccc3c21 : 92
CO[C@H]1[C@@H](OC)C[C@H](C)[C@@H](OC)C2=CC(=O)C=C(NC(=O)/C(C)=C/C=C/[C@H](OC)[C@@H](OC(N)=O)/C(C)=C/[C@@H]1C)C2=O : 93
Nc1cccc(-c2cc3c(Oc4cccc(O)c4)ncnc3[nH]2)c1 : 26
Cc1nc2cc3nc(-c4cccs4)cnc3cc2n1C : 98
